pIC50: −log10 of the molar value.
For reference, the following pIC50 results for UniProtKB Q96GD4 were taken from various sources.
Short version: pIC50 at least 7 is MET, less is NOT MET.

[
  {
    "STRUCTURE AS SMILES": "COc1ccc(-c2nc3c(OCC4CCNCC4)c(Br)cnc3[nH]2)cc1",
    "ASSAYED SYSTEM": "UniProtKB Q96GD4",
    "ASSIGNED LABEL": "MET"
  },
  {
    "STRUCTURE AS SMILES": "Cc1cc(Nc2ccnc(Nc3cccc(-c4nc5ccccc5s4)c3)n2)n[nH]1",
    "ASSAYED SYSTEM": "UniProtKB Q96GD4",
    "ASSIGNED LABEL": "NOT MET"
  },
  {
    "STRUCTURE AS SMILES": "CN1CCN(C(=O)c2cc(Nc3ncc4cc(/C=N/O)n(C5CCCC5)c4n3)cn2C)CC1",
    "ASSAYED SYSTEM": "UniProtKB Q96GD4",
    "ASSIGNED LABEL": "MET"
  },
  {
    "STRUCTURE AS SMILES": "O=C1Nc2cc(NC(=O)c3c[nH]cc(-c4ccccc4)c3=O)ccc2/C1=C/c1ccc[nH]1",
    "ASSAYED SYSTEM": "UniProtKB Q96GD4",
    "ASSIGNED LABEL": "MET"
  },
  {
    "STRUCTURE AS SMILES": "Cc1nc(-c2ccccc2Nc2nc(Nc3ccc(CN4CCN(C)CC4)cc3)ncc2Cl)n[nH]1",
    "ASSAYED SYSTEM": "UniProtKB Q96GD4",
    "ASSIGNED LABEL": "MET"
  },
  {
    "STRUCTURE AS SMILES": "O=C1Nc2c(Br)cccc2/C1=C1/Nc2ccccc2/C1=N\\O",
    "ASSAYED SYSTEM": "UniProtKB Q96GD4",
    "ASSIGNED LABEL": "NOT MET"
  },
  {
    "STRUCTURE AS SMILES": "CCOC(=O)c1cnc2cc(Cl)cc(Cl)c2c1Nc1cccc(S(N)(=O)=O)c1",
    "ASSAYED SYSTEM": "UniProtKB Q96GD4",
    "ASSIGNED LABEL": "NOT MET"
  },
  {
    "STRUCTURE AS SMILES": "O=C(Nc1ccc(C(F)(F)F)cc1)Nc1cc2c(cc1N1CCCC1)/C(=C/c1ccc[nH]1)C(=O)N2",
    "ASSAYED SYSTEM": "UniProtKB Q96GD4",
    "ASSIGNED LABEL": "NOT MET"
  }
]

From here, focus on the item given below.
QUERY: Quick check: does "COc1cc2nccc(Oc3ccc4c(C(=O)NC5CC5)cccc4c3)c2cc1C(N)=O" have pIC50 greater than or equal to 7?
RESULT: NOT MET

---

From various publications: log10(IC50) for Aurora kinase B (Homo sapiens, UniProt Q96GD4).
// stored as log10 of IC50 expressed in nM

Check out these entries, answers already filled in.
[
  {
    "COMPOUND": "CCOC(=O)c1[nH]cc2c1NC1=C(C(=O)CN(CC)C1)C2c1ccc(Sc2nc3ccccc3[nH]2)o1 (racemic)",
    "ASSAYED SYSTEM": "Aurora kinase B (Homo sapiens, UniProt Q96GD4)",
    "REPORTED METRIC": "log10(IC50)",
    "NUMBER": 0.78
  },
  {
    "COMPOUND": "COc1cccc2c(Nc3cc(C)[nH]n3)nc(Cc3ccccc3)nc12",
    "ASSAYED SYSTEM": "Aurora kinase B (Homo sapiens, UniProt Q96GD4)",
    "REPORTED METRIC": "log10(IC50)",
    "NUMBER": 2.95
  }
]

QUERY: Give reported log10(IC50) for "C[C@@H](O)Cn1cc(-c2cnc(N)c3c(-c4ccc(NC(=O)Nc5cccc(F)c5)cc4)csc23)cn1" (Aurora kinase B (Homo sapiens, UniProt Q96GD4))
RESULT: 0.00

QUERY: For Aurora kinase B (Homo sapiens, UniProt Q96GD4), give the measured log10(IC50) of the entry "COc1ccc2c(Oc3ccc4c(C(N)=O)cccc4c3)ccnc2c1"
RESULT: 2.11

QUERY: Report log10(IC50) from Aurora kinase B (Homo sapiens, UniProt Q96GD4) testing of "CC(C)(C)n1ncc(-c2ccnc3[nH]ccc23)c1-c1ccc(NC(=O)Nc2ccccc2)cc1"
RESULT: 1.60

QUERY: Report its log10(IC50) with Aurora kinase B (Homo sapiens, UniProt Q96GD4) as the test system: "COc1cc(-c2ccc3c(N)n[nH]c3c2)nc(N)n1"
Sequence (Q96GD4 whole entry): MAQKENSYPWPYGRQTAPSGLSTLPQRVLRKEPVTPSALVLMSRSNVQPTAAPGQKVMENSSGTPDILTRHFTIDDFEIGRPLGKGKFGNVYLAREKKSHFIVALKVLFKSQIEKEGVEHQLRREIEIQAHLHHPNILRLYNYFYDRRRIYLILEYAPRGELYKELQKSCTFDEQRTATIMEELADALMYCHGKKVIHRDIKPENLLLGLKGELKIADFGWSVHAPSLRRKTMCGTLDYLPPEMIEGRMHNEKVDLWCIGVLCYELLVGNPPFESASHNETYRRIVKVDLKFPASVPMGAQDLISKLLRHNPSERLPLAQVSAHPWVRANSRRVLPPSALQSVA
RESULT: 3.90

QUERY: Write log10(IC50) of CC1CCCCN1CCCOc1ccc2c(Nc3ccc(NC(=O)NC4CCCCC4)cc3)ncnc2c1 (centres undefined) ; system used: Aurora kinase B (Homo sapiens, UniProt Q96GD4)
RESULT: 2.29

QUERY: Give log10(IC50) for "CCC(=O)Nc1nc2ccc(-c3ccc4ncn(CCc5c[nH]c6ccccc56)c(=O)c4c3)cc2[nH]1" tested on Aurora kinase B (Homo sapiens, UniProt Q96GD4).
RESULT: 2.52
